- SUBJECT OF TEST: UniProtKB P47871
- Sequence (P47871 26-477): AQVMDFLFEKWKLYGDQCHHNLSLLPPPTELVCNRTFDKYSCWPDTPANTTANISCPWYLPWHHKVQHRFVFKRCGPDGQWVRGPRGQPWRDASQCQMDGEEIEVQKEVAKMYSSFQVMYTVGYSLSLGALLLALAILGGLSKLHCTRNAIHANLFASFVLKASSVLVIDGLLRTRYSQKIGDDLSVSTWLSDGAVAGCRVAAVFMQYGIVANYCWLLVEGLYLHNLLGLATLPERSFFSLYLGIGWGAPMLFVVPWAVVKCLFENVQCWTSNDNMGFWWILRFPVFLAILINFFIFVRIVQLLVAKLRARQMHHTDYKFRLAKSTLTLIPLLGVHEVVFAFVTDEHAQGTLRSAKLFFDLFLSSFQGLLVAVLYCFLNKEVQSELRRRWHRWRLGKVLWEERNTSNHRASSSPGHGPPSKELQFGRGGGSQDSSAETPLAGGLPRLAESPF
- ASSAY COMMENT: Cellular functional assay, cAMP readout (glucagon-stimulated cAMP in HEK293 cells expressing human GCGR)
- Assay type: cell-based
- ASSAY CONTEXT: hGluc-1 HEK cells, LANCE TR-FRET, IC50 converted to Ki, average if tested more than once
pKi: −log10 of the molar value.
Classification field: enter Yes for pKi values not below 7, No for values below it.

{"CHEMICAL SMILES": "O=C(O)CCNC(=O)c1ccc(-c2cc(C(F)(F)F)ccc2CNc2ccc(-c3cccc(C(F)(F)F)c3Cl)cc2)cn1", "ANSWER LABEL": "Yes"}

Hi, just wondering whether `O=C(O)CCNC(=O)c1ccc(-c2cc(C(F)(F)F)c(Cl)cc2CNc2ccc(-c3ccc(Cl)cc3)c(Cl)c2)cn1` shows pKi of 7 or higher.
Yes

Hi, just wondering whether `CC(C)(C)c1ccc(-c2ccc(NCc3ccc(Cl)cc3-c3ccc(C(=O)NCCC(=O)O)nc3)cc2Cl)cc1` shows pKi of 7 or higher.
No

Hi, just wondering whether `N#Cc1cc(NCc2ccc(Cl)cc2-c2ccc(C(=O)NCCC(=O)O)nc2)ccc1-c1ccc(Cl)c(C(F)(F)F)c1` shows pKi of 7 or higher.
No

Hi, just wondering whether `COc1cc(C(F)(F)F)cc(-c2ccc(C(=O)NCCC(=O)O)nc2)c1CNc1ccc(-c2ccc(Cl)cc2)c(Cl)c1` shows pKi of 7 or higher.
Yes

Hi, just wondering whether `O=C(O)CCNC(=O)c1ccc(-c2cc(Cl)ccc2CNc2ccc(-c3ccc(F)cc3F)c(F)c2)cn1` shows pKi of 7 or higher.
No
